Recorded TGI values for a group of compounds are listed next.
System: SW-620 colon
assay explanation: NCI tumour cell line growth inhibition, 48 h

Known TGI results, listed for orientation:
CCCCNc1nc(N)nc(Nc2ccc(Br)cc2)c1N=O ... > 100 µM
Nc1ccn(C2OC(CO)C3[O][Sn]([c]4ccccc4)([c]4ccccc4)[O]C32)c(=O)n1 (stereo not given) ... 61.5 µM
COC(=O)C1CC2C=CC1N(C(=O)OCc1ccccc1)C2 (stereo not given) ... > 100 µM
CCC(=C(C#N)C#N)c1cc(OC)c(OC)c(OC)c1 ... > 100 µM

Attention now shifts to the item below.
SW-620 colon data for Cn1cc(C2=C(c3cn(CCCO)c4ccccc34)C(=O)NC2=O)c2ccccc21 ; its TGI: > 25 µM

====

Below: a set of entries, each annotated with reported log10 TGI.
Tested on: MCF7 breast
assay explanation: NCI tumour cell line growth inhibition, 48 h
Please note: log10 values; quantity TGI; unit µM.

Here is how some compounds turned out for log10 TGI.
C[C@@H](O)[C@H]1C(=O)N2C(C(=O)O)=C(SCCN=CN)C[C@H]12 ... 1.05
COc1cc(OC)cc(C(=O)NC2=C(Cl)C(=O)c3ccccc3C2=O)c1 ... 0.94
Cc1nc2cc(-n3c(-c4ccc(F)cc4)nc4ccccc4c3=O)ccc2n1Cc1ccccc1 ... 0.75
COc1ccc(P2(=S)Oc3ccc(C(c4ccccc4)(c4ccccc4)c4ccccc4)cc3O2)cc1 (stereo not given) ... 1.54
O=C1c2ccc(O)cc2OC(c2cc(O)c(O)c(O)c2)C1O (stereo not given) ... 1.72
CN(C)CCCN1c2ccccc2CCc2cccc([N+](=O)[O-])c21 ... 1.49
CN(C)c1ccc(/C=C/c2ccc3ccccc3[n+]2C)cc1 ... 1.16
COc1ccc2c(c1)c(=O)c1c(NCCN(C)C)ccc3c(=O)n(CCN(C)C)c(=O)n2c31 ... 0.68
CC(C)[Si]1(C(C)C)OCC2OC(N3C(=O)NC(=O)C[C@@H]3C(O)c3ccccc3)CC2O[Si](C(C)C)(C(C)C)O1 (stereo not given in full) ... 1.18

# log10 TGI (compound: C=C(C)C(=O)OC1CC2(C)OC(=CC2=O)C(C)CC2OC(=O)C(=C)C12 (stereo not given) ) is 1.42

====

Test system: SK-OV-3 ovarian
assay explanation: NCI tumour cell line growth inhibition, 48 h
Reported TGI values follow for various compounds

COc1cccc([C@@]2(O)c3c(ccc(O)c3OC)[C@H]2OC)c1OC ... > 100 µM
CC(C)(C)OC(=O)Nc1nnc(S(N)(=O)=O)s1 ... > 100 µM
O=C(CC1(O)C(=O)Nc2c(Cl)cc(Cl)cc21)c1ccco1 (stereo not given) ... > 100 µM
CN(C(=O)CC(=O)CP(=O)(c1ccccc1)c1ccccc1)c1ccccc1 ... > 100 µM
O=C(/C=C1\C[C@H]2C=Nc3ccccc3C(=O)N2C1)NCCCNC(=O)/C=C1\C[C@H]2C=Nc3ccccc3C(=O)N2C1 ... 36.4 µM
Cn1cc(C2=C(c3cn(CCCO)c4ccccc34)C(=O)NC2=O)c2ccccc21 ... > 22.1 µM

// sample COC(=O)c1cc2c3c(c1)Oc1cc(C(=O)OC)cc4c1C3c1c(cc(C(=O)OC)cc1O4)O2 , its TGI was 42.4 µM

The reported value for OC1CC2CCCN(CCc3c1[nH]c1ccccc31)C2 (stereo not given) in terms of TGI is > 100 µM

Entry Cc1cc(C)c(C#N)c(SC(=S)NC(=O)c2ccc(Cl)cc2)n1 , TGI reported as > 100 µM

Lab note: measured TGI of O[N+]1=CC=CCC1=S.On1ccccc1=S.[Zn] was 2.87 µM

====

System: SK-OV-3 ovarian
assay explanation: NCI tumour cell line growth inhibition, 48 h
value kind: TGI

Here is how some molecules turned out for TGI.
NNC1=N/C(=C\c2ccccc2O)C(=O)N1 ... > 100 µM
COc1ccc(OC)c(N2C(=O)/C(=C\c3ccccc3)SC2c2cc(OC)c(OC)c(OC)c2)c1 (stereo unspecified) ... > 100 µM
CCCCCCCCC1=CCC(CN(C)C)C1=O (stereo unspecified) ... > 100 µM
Cn1c(=O)cc(NNc2ccccc2)[nH]c1=O ... > 100 µM
O=C1CC(c2ccccc2Cl)Oc2ccccc21 (stereo unspecified) ... > 100 µM
Oc1ccc(N=Cc2ccc(C=Nc3ccc(O)cc3)cc2)cc1 ... 32.4 µM
COc1cc(O)c2c(=O)c(OC)c(-c3ccc(OC)c(OC)c3)oc2c1.[Co] ... > 100 µM
CCCc1cc(=O)oc2c3c(c4c(c12)OC(C)(C)CC4)O[C@H](C)[C@@H](C)[C@H]3O ... 31.7 µM
Cc1cc(C)c(OC(=O)Nc2cccc3ccccc23)c(-c2ccccc2)c1 ... > 100 µM
CC(=O)[CH-]C(C)=O.CC(=O)[CH-]C(C)=O.[CH2-]CCCCCCC.[CH2-]CCCCCCC.[Sn+4] ... 67.1 µM

Sure, the documented TGI for Cc1cccc(C)c1NC(=O)CCC(=O)CC(=O)C(C)C is > 100 µM

Reported TGI ( CC(C)C(Br)CC/C(CBr)=C(\Cl)CCl (stereo unspecified) ) = 11.3 µM

So, COc1ccc2c(c1)C(=O)c1c-2n(CCCNCCO)c(=O)c2ccccc12 ? Its TGI was 1.42 µM

Notebook: Cc1cc(O)c2c3c1C(=O)Oc1c(CO)c(O)c(C(=O)O)c(c1O3)C=NN=Cc1c3c(c(CO)c(O)c1C(=O)O)OC(=O)c1c(C)cc(O)c(c1O3)C=NN=C2 , TGI read as > 100 µM

Reported TGI ( O=C(Nc1cccc(-c2cccc(F)c2)c1)C1CCN(Cc2cccc3cccnc23)CC1 ) = 16.9 µM

COC(=O)[C@@H](Cc1ccccc1)NNC(=O)OC(C)(C)C has a reported TGI of > 100 µM

====

Tested on: SNB-19 CNS
assay explanation: NCI tumour cell line growth inhibition, 48 h
value kind: TGI

Below, 5 compounds whose answers are already recorded.
O=C(O)CCCn1c(SCc2c(Cl)cccc2Cl)nc2ccsc2c1=O ... > 100 µM
O=C1c2ccc(O)cc2OC(c2cc(O)c(O)c(O)c2)C1O (stereo unspecified) ... > 100 µM
Nc1nc(N)c2cc(CNc3ccc(C(=O)NC(CC(=O)O)C(=O)O)cc3)ccc2n1 (stereo unspecified) ... > 100 µM
CCCCCCC1NN(C(C)=O)C(CCCCCC)NN1C(C)=O (stereo unspecified) ... > 100 µM
CCOC(=O)/C=C/C1=C(c2csc3ccccc23)c2ccccc2CC1 ... 80.9 µM

Now turn to the next compound.
What the record says about COc1ccc(C=Nc2c(O)ccc3ccccc23)cc1OC : TGI is > 100 µM

====

Tested on: HCC-2998 colon
assay explanation: NCI tumour cell line growth inhibition, 48 h
Reported values of GI50 for individual entries

Look over these answered cases.
C[C@]12CCC3c4ccc(O)cc4CCC3C1CC[C@@]2(O)C#Cc1ccc(C#C/C=C\C#Cc2ccccc2N)cc1 (stereo not given in full) ... 25.6 µM
CN1CCN(CCn2c3c4ccccc4ccc3c3oc(=O)c4ccccc4c32)CC1 ... 4.22 µM
Cc1c(C(N)=O)sc2c1c(=O)n(Cc1ccccc1)c1nnc(SCC(=O)Nc3ccc(Cl)cc3)n21 ... 5.56 µM
Cn1cc(C2=C(c3cn(CCCO)c4ccccc34)C(=O)NC2=O)c2ccccc21 ... 7.83 µM

// compound COc1ccc2c(c1)C(=O)c1c-2n(CCCNCCO)c(=O)c2ccccc12 , assay HCC-2998 colon, GI50 value: 0.109 µM

The compound COC(=O)C(N)CSC(c1ccccc1)(c1ccccc1)c1ccccc1 (stereo not given) , tested on HCC-2998 colon, showed GI50 of 2.1 µM

GI50 of CCOC(=O)/C=C/C1=C(c2csc3ccccc23)c2ccccc2CC1 , assay on HCC-2998 colon, is 55.5 µM

The reported HCC-2998 colon GI50 of Cc1c(C(=O)O)n(-c2ccc(Cl)cc2)c2ncnc(N)c12 is 23.6 µM

Per the reported HCC-2998 colon data, CN1CCN(c2ccc3nc(-c4c5cccccc-5[nH]c4=O)[nH]c3c2)CC1 has GI50 of 13.7 µM

Entry Clc1ccc(C2c3ccccc3-c3nccn32)c(Cl)c1 (stereo not given) , tested on HCC-2998 colon, has a reported GI50 of 13.9 µM

====

TGI: recorded values
Test system: 786-0 renal
assay explanation: NCI tumour cell line growth inhibition, 48 h
Supply the numeric figure in µM, leaving out any unit text.

CC(C)C(Br)CC/C(CBr)=C(\Cl)CCl (stereo not given) ... 3.49

// TGI (786-0 renal) for O=[N+]([O-])/C(C(Cl)=C(Cl)Cl)=C(\Nc1cccc2ccccc12)Sc1ccccc1 = 38

Param item: Cn1c(=O)cc(NNc2ccccc2)[nH]c1=O ; param system: 786-0 renal; output TGI: 30

The observed TGI for C[C@]12CC[C@@H]3c4cc(Br)c(O)c(Br)c4CC[C@H]3[C@@H]1CCC2=O when tested with 786-0 renal stands at 46.4
